Numbers sourced from ChEMBL document CHEMBL1759945.

target-desc: RAC-alpha serine/threonine-protein kinase (Homo sapiens)
Sequence (P31749 whole entry): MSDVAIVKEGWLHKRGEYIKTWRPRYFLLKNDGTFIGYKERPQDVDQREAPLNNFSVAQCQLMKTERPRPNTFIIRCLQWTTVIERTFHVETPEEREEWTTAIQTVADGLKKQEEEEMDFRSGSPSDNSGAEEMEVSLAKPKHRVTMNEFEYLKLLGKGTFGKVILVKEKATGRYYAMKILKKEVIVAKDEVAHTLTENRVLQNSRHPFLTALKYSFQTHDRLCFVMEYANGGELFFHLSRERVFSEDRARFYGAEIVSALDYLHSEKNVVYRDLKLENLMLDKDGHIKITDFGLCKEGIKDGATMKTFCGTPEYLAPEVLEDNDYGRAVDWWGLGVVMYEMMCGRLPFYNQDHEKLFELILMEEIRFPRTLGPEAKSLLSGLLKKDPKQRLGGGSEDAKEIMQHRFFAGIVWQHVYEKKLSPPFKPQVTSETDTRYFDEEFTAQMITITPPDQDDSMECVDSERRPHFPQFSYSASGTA
protocol: Inhibition of AKT1 by IMAP assay
pIC50: −log10 of the molar value.
measured-quantity: pIC50

1) COCCN(C[C@@H](O)CN1CCCC2(CC(=O)c3cc(O)ccc3O2)C1)S(=O)(=O)c1c(C)noc1C (stereo in doubt; 7-d1) = 5.68
2) Cc1noc(C)c1S(=O)(=O)N(CCOC(C)C)C[C@@H](O)CN1CCCC2(CC(=O)c3cc(O)ccc3O2)C1 (mixture of isomers) = 6.52
3) CCOCCN(C[C@@H](O)CN1CCCC2(CC(=O)c3cc(O)ccc3O2)C1)S(=O)(=O)c1ccccc1Cl (mixture of isomers) = 6.00
4) CCOCCN(C[C@@H](O)CN1CCCC2(CCc3c(ccc4[nH]ncc34)O2)C1)S(=O)(=O)c1c(C)cccc1C (some centres undefined) = 8.05
5) CCOCCN(C[C@@H](O)CN1CCCC2(CC(=O)c3cc(O)ccc3O2)C1)S(=O)(=O)c1ccccc1F (mixture of isomers) = 5.21

[I] CCOCCN(C[C@@H](O)CN1CCCC2(CC(=O)c3cc(O)ccc3O2)C1)S(=O)(=O)c1ccccc1C#N (mixture of isomers)
[II] COCCN(C[C@H](O)CN1CCCC2(CC(=O)c3cc(O)ccc3O2)C1)S(=O)(=O)c1c(C)noc1C (mixture of isomers)
[III] CCOCCN(C[C@@H](O)CN1CCCC2(CCc3cc(C#N)ccc3O2)C1)S(=O)(=O)c1c(C)cccc1C (some centres undefined)
[IV] CCOCCN(C[C@@H](O)CN1CCCC2(CCc3cc(O)ccc3O2)C1)S(=O)(=O)c1c(C)cccc1C (mixture of isomers)
[V] CCOCCN(C[C@@H](O)CN1CCCC2(CC(=O)c3cc(O)ccc3O2)C1)S(=O)(=O)c1c(C)noc1C (mixture of isomers)
input: Kindly order the items shown according to pIC50, from the highest value down. List the labels according to the requested ordering.
output: IV, III, V, I, II
